So I've got a bunch of molecules here, and I need their melting point values.

*Q* // Input: COC(=O)c1ccc(F)c2c1OCC=C2 . Output its melting point only.
*A* 65 to 67 °C

*Q* Read the entry N#Cc1ccc(NC(=S)Nc2ccc(NNC=O)cc2)cc1 and write its reported melting point.
*A* 180 to 182 °C

*Q* Return melting point for the following molecule: CC(NS(=O)(=O)c1cc(C(=O)CCl)ccc1Cl)c1ccccc1 (stereo unspecified)
*A* 127 °C

*Q* Answer with the recorded melting point for the molecule listed here: N#Cc1ccc(-c2cncc(OC3SCC(O)C(O)C3O)c2)cc1Cl (stereo unspecified)
*A* 202 to 204 °C

*Q* Indicate its recorded melting point; the molecule in question is COc1cc(OC)nc(-n2cnc(N)n2)n1
*A* 219 °C

*Q* Using known records, supply melting point for N#CC1CN1C(=O)CNC(=O)c1ccccc1 (stereo unspecified)
*A* 78 to 81 °C

*Q* Quick one: give measured melting point for CCS(=O)(=O)Nc1cccc2c1N=C(c1ccc(-n3c(C)nc4cnccc43)cc1)CC(=O)N2
*A* 258 to 260 °C

*Q* Specify melting point for Nc1nc(NCc2cccc(F)c2)nc2nc(-c3ccco3)nn12 and stop.
*A* 216 to 218 °C

*Q* Provide measured melting point value, entry: CN1CCC(=C2c3ccccc3COc3ccc(Br)cc32)CC1
*A* 131 to 132 °C

*Q* Provide measured melting point value, entry: Cc1ccc(Sc2cncc3sc(C=NOCC(N)=O)cc23)cc1
*A* 152 to 156 °C

*Q* Provide melting point value for the following molecule: CNC(=O)CN1CCC(C(O)(c2ccc(F)cc2)c2ccc(F)cc2)CC1
*A* 122 to 124 °C

*Q* Give melting point for the following molecule: CN(C)CCC(=O)Nc1ccc2[nH]c3ccc(NC(=O)CCN(C)C)cc3c(=O)c2c1
*A* > 320 °C

*Q* Give a short answer stating reported melting point for ON=C1CCC(c2ccccc2)CC1 (stereo unspecified) .
*A* 110 to 112 °C

*Q* Read the entry Cc1ccc(Cc2cnc(NCCCN(c3ccccc3)c3ccccn3)[nH]c2=O)cn1 and write its reported melting point.
*A* 216 to 218 °C

*Q* Report melting point for COc1ccc(-c2c(O)c3ccc(Cl)cc3[nH]c2=O)cc1
*A* > 350 °C

*Q* Provide one value: measured melting point of O=Cc1ccc2cc3ccccc3cc2c1
*A* 201 to 202 °C

*Q* Return value of melting point for input CC(=S)Nc1ccc[nH]1 , no commentary.
*A* 93 to 94 °C

*Q* Determine its reported melting point: CC(=O)CCCN1CC[C@H](CNC(=O)c2cc(Cl)c(N)c3c2OCC3)[C@H](O)C1 (relative stereo)
*A* 118 °C

*Q* Determine from records and report melting point for O=C1c2ccccc2-c2c1c1ccccc1c(=O)n2CCCCCCNS(=O)(=O)c1ccccc1
*A* 150 to 152 °C

*Q* For the molecule CN1CCCCC1CCc1ccccc1NC(=O)C#Cc1ccccc1 (stereo unspecified) , report melting point.
*A* 104 to 106 °C

*Q* Check the records and state melting point for [O-][N+](O)=CCN=Nc1ccccc1
*A* 95 to 97 °C

*Q* Recall and state the measured melting point for COc1cc2ccccc2cc1OC .
*A* 112 to 113 °C

*Q* Respond only with melting point recorded for CCOC(=O)Cc1c[nH]c2nc(Nc3ccc(OC(C)C)cc3)nn2c1=O
*A* 235 to 240 °C

*Q* Look up melting point of CCCN(CCC)S(=O)(=O)c1ccc(C(CC2CCCC2)C(=O)Nc2nc3ccc(OC)nc3s2)cc1 (stereo unspecified) and report it.
*A* 64 to 66 °C

*Q* Look up and state reported melting point for CC(=O)c1ccc(OCCCN2CCC(c3noc4cc(F)ccc34)CC2)c(CC(N)=O)c1
*A* 108 to 110 °C

*Q* For the molecule CC(=O)NC[C@H]1CN(c2ccc(C3=CCCN(C(=O)OC(C)(C)C)CC3)c(F)c2)C(=O)O1 , give its measured melting point value.
*A* 164 to 165 °C

*Q* Look up and report measured melting point for this entry: N#Cc1cc2ccc(OCC3CO3)cc2o1 (stereo unspecified)
*A* 90 to 92 °C

*Q* Return value of melting point for input COc1ccc2cc(-c3ccnc(NCCc4ccc(OC)c(OC)c4)n3)cc(N3CCNCC3)c2c1 , no commentary.
*A* 138 to 140 °C

*Q* Given Clc1ccc(NN=Cc2cccnc2)cc1 , respond with its melting point.
*A* 186 °C

*Q* Give a short answer stating reported melting point for COc1ccccc1C(CCNC(C)(C)C)c1cc(Cl)ccc1OC (stereo unspecified) .
*A* > 260 °C

*Q* Complete the entry with melting point for Nc1c(Br)cc2c(c1Br)C(C(Cl)(Cl)Cl)OC(C(Cl)(Cl)Cl)O2 (stereo unspecified)
*A* 158 to 159 °C

###

So I've got a bunch of compounds here, and I need their melting point values.

*Q* Supply melting point value. Item: COC(=O)C1CCCn2c(=O)n(CCCl)c(=O)n21 (stereo unspecified)
*A* 94 to 95 °C

*Q* Tell me melting point reported for CC1N(C)c2cc3[nH]c(=O)cc(C(F)(F)F)c3cc2C1(C)C (stereo unspecified)
*A* 248 to 249 °C

*Q* Tell me its melting point given CC(C)(COC(=O)c1cc(Cl)c(O)c(Cl)c1)Cc1ccc(CC(C)(C)COC(=O)c2cc(Cl)c(O)c(Cl)c2)cc1 as the entry.
*A* 203 to 204 °C

*Q* Supply melting point value. Item: Fc1ccc(Oc2ccnc3c(Cl)cccc23)c(Cl)c1
*A* 99 to 101 °C

*Q* Please supply the value of reported melting point for the item CCCOc1ccc(S(=O)(=O)N(C)C)cc1C1=NC(=O)C2=NC=NC2=N1
*A* 268 to 269 °C

*Q* Report melting point for O=[N+]([O-])C=C1NCCCS1
*A* 76 to 78 °C

*Q* Return melting point (reported value) for this compound: CC(=O)c1cc2c(c(CCl)c1O)CCCC2
*A* 88 to 90 °C

*Q* Supply recorded melting point for Cn1nc(-c2cc(Cl)c(F)cc2F)c(Cl)c1C(F)(F)F here.
*A* 50 to 51 °C

*Q* Annotate the compound COC(=O)n1nc(-c2cc(Cl)c(C)c(Cl)c2)ccc1=O with its measured melting point.
*A* 203 to 206 °C

*Q* Hello, please tell me recorded melting point for this one: O=C1c2cc(O)ccc2OCC1Cc1ccccc1 (stereo unspecified)
*A* 140 to 143 °C

*Q* Name the recorded melting point of the compound listed here: c1ccc2c(c1)CCCC2c1c[nH]cn1 (stereo unspecified)
*A* 105 to 110 °C

*Q* // Input: C=C(C)C(=O)NCCCNc1nc(Cl)nc(Cl)n1 . Output its melting point only.
*A* 138 to 140 °C

*Q* Answer with the recorded melting point for the compound listed here: CCOC(=O)c1cc(C)nc2c(OCc3ccccc3)cccc12
*A* 134 °C

*Q* Retrieve melting point measured for CCn1c2c(c(=O)c3cc(C(C)C)ccc31)Cc1cc(C)sc1-2 and print it.
*A* 168 to 169 °C

*Q* Supply measured melting point of CC(=O)c1cccc([C@H]2C[C@H]2NC(=O)Nc2ccc(Cl)cn2)c1 (racemic) in your reply.
*A* 144 to 145 °C

*Q* Please report melting point for the following compound: NCCNc1cc(NCCO)c(Cl)cc1[N+](=O)[O-]
*A* 160 °C

*Q* Report melting point for CCOC(=O)C(C)(C)Oc1ccc(CCCC(=O)NN(Cc2cc(F)cc(F)c2)C(N)=O)cc1
*A* 108 to 109 °C

*Q* Consider the compound CCOC(=O)c1c(N2CCN(C(=O)c3cccs3)CC2)c2cscc2[nH]c1=O and give its recorded melting point.
*A* 282 °C

*Q* Provide one value: measured melting point of CCc1ccc2c(c1)C=Cc1cc(C)ccc1C2c1cn(-c2ccnc(N3CC(C(=O)Nc4nc(CC(=O)O)cs4)C3)n2)c(=O)[nH]c1=O (stereo unspecified)
*A* 235 °C

*Q* Tell us which melting point value is on record for CC(Cc1cc(I)c(Oc2ccc(O)cc2)c(I)c1)(NC=O)C(=O)O (stereo unspecified)
*A* 221 to 223 °C

*Q* Tell me melting point reported for Cc1nc(Cl)c2c(n1)N(C)C(=O)CO2
*A* 142 to 143 °C

*Q* Check the records and state melting point for N#Cc1cc(C(=O)NNC(=O)c2occc2-c2ccccc2-c2ccccc2)ccc1O
*A* 159 to 162 °C

*Q* Give recorded melting point. CCOP(=O)(CNCc1cccnc1-c1cc(C(C)(C)C)c(O)c(C(C)(C)C)c1)OCC
*A* 100 to 101 °C

*Q* Consider the compound O=S(=O)(c1ccc(-n2cccc2)cc1)c1cccc2cnccc12 . State its measured melting point.
*A* 207 to 210 °C

*Q* Answer with the recorded melting point for the compound listed here: CC1=C(C(=O)OCCCl)C(c2cccc3c(=O)c(C)c(-c4ccccc4)oc23)C(C(=O)OC(C)C)=C(C)N1 (stereo unspecified)
*A* 235 to 237 °C

*Q* Look up melting point of CC(C)(C)NC(=O)[C@@H]1C[C@H](Cl)CN1C(=O)[C@@H](O)[C@H](Cc1ccccc1)NC(=O)[C@H](CCS(C)(=O)=O)NC(=O)OCc1ccccc1 and report it.
*A* 99 to 103 °C

*Q* Supply recorded melting point for c1ccc(-c2cc[nH]c2-c2ccccc2)cc1 here.
*A* 130 to 131 °C

*Q* Please list melting point recorded for the compound COc1cc(C=CC(=O)O)ccc1NC(C)=O
*A* 222 to 230 °C

*Q* Fill in melting point for record NC(=O)C1CCCc2c(C(=O)O)cccc21 (stereo unspecified)
*A* 247 to 249 °C

*Q* Check the records and state melting point for Cc1nc2ccc(C(C)(C)CNC=O)cc2[nH]1
*A* 57 to 60 °C

*Q* Determine from records and report melting point for COC(=O)C(=O)c1ccc(SC)c(Cl)c1
*A* 67.9 to 70.2 °C
